# target_entity: GST-tagged-Wee1 kinase (Homo sapiens, UniProt P30291)
# Construct: purchased Carnabio 05-177
# Sequence (P30291 whole entry): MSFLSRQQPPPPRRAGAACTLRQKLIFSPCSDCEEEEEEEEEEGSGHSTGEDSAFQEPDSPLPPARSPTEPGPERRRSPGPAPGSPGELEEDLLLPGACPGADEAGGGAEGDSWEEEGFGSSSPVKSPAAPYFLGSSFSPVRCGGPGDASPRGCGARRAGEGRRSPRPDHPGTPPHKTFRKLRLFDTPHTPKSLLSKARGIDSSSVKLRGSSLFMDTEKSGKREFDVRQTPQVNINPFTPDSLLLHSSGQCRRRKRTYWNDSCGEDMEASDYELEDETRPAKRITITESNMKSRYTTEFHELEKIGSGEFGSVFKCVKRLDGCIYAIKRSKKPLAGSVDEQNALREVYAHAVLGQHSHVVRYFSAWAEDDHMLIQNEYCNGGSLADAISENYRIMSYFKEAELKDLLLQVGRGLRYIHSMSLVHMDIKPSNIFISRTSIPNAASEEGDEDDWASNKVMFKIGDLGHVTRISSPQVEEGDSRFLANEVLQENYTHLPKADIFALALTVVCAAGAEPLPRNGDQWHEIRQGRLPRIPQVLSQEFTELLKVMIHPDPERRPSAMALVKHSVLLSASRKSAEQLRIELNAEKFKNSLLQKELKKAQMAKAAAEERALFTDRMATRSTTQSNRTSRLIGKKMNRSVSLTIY
# assay_details: Wee1 time-resolved fluorescence equilibrium binding assay (displacement of Oregon Green-labeled ATP-competitive kinase probe)
# condition_details: enzyme binding data; GST-tagged-Wee1 kinase 2 nM, fluorescent probe 300 nM, inhibitor 0.003 to 10 micromolar, 1 hour incubation; read-out: Wee-1 binding (Ki nM)
This listing pairs molecules with measured log10(Ki).
Base-10 log of Ki, unit nM.

{"columns": ["molecular_string", "log10(Ki)"],
 "data": [
  ["Cc1cn(-c2cc(Cl)ccc2Cl)c(=O)c2cnc(Nc3ccc4c(c3)CNCC4)nc12", 1.25],
  ["CC1(C)CNCc2cc(Nc3ncc4c(=O)n(-c5c(Cl)cccc5Cl)cc(CO)c4n3)ccc21", -1.00],
  ["Cc1cn(-c2c(Cl)cccc2Cl)c(=O)c2cnc(Nc3ccc(NCCN(C)C)cc3)nc12", -0.52]
]}

Give reported log10(Ki) value for COC(=O)c1ccc(Cl)c(-n2cc(C)c3nc(Nc4ccc5c(c4)CNCC5)ncc3c2=O)c1
2.51

Give reported log10(Ki) value for Cc1cn(-c2c(F)cccc2Cl)c(=O)c2cnc(Nc3ccc(C4CCN(C)CC4)cc3)nc12
0.08

Give reported log10(Ki) value for Cc1cn(-c2ccccc2Cl)c(=O)c2cnc(Nc3ccc4c(c3)CNCC4)nc12
-0.30

Give reported log10(Ki) value for CN1Cc2cc(Nc3ncc4c(=O)n(-c5c(Cl)cccc5Cl)cc(C(F)F)c4n3)ccc2C2(CC2)C1
-0.25

###

# target_entity: GST-tagged-Wee1 kinase (Homo sapiens, UniProt P30291)
# Construct: purchased Carnabio 05-177
# assay_details: Wee1 time-resolved fluorescence equilibrium binding assay (displacement of Oregon Green-labeled ATP-competitive kinase probe)
# condition_details: enzyme binding data; GST-tagged-Wee1 kinase 2 nM, fluorescent probe 300 nM, inhibitor 0.003 to 10 micromolar, 1 hour incubation; read-out: Wee-1 binding (Ki nM)
measured_endpoint: Ki (nM)
The response must be a number in nM with no trailing unit.

{"columns": ["molecule", "target_entity", "experimental_value"],
 "data": [
  ["CN1CCC(c2ccc(Nc3ncc4c(=O)n(-c5c(Cl)cccc5Cl)cc(C(F)F)c4n3)cc2)CC1 [Example 82]", "GST-tagged-Wee1 kinase (Homo sapiens, UniProt P30291)", 0.1]
]}

Give reported Ki value for CN(C)C1Cc2ccc(Nc3ncc4c(=O)n(-c5c(Cl)cccc5Cl)cc(CF)c4n3)cc2C1 (stereo not shown) [Example 112]
0.4

Give reported Ki value for C=Cc1cn(-c2c(Cl)cccc2Cl)c(=O)c2cnc(Nc3ccc(N4CCC(N(C)C)CC4)cc3)nc12 [Example 50]
0.5

Give reported Ki value for Cc1cn(-c2c(Cl)cccc2Cl)c(=O)c2cnc(Nc3ccc(N[C@H]4CC[C@H](N(C)C)CC4)cc3)nc12 [Example 132]
0.4

Give reported Ki value for Cc1cccc(Cl)c1-n1cc(C)c2nc(Nc3ccc4c(c3)CN(C)CC43CC3)ncc2c1=O [Example 90]
0.193

Give reported Ki value for C=Cc1cn(-c2c(F)cccc2Cl)c(=O)c2cnc(Nc3ccc4c(c3)CN(C)CC43CC3)nc12 [Example 63]
0.9

Give reported Ki value for Cc1nn(C)c(C)c1-n1cc(C)c2nc(Nc3ccc4c(c3)CNCC4)ncc2c1=O [Example 119]
1.6

Give reported Ki value for CN(C)CCCN1CCN(c2ccc(Nc3ncc4c(=O)n(-c5c(Cl)cccc5Cl)cc(CF)c4n3)cc2)CC1 [Example 140]
0.2

Give reported Ki value for CN1Cc2cc(Nc3ncc4c(=O)n(-c5c(Cl)cccc5Cl)cc(CO)c4n3)ccc2C2(CC2)C1 [Example 53]
0.3

Give reported Ki value for Cc1cn(-c2c(F)cccc2Cl)c(=O)c2cnc(Nc3ccc4c(c3)CNCC4(C)C)nc12 [Example 73]
1.5

Give reported Ki value for C=Cc1cn(-c2c(F)cccc2Cl)c(=O)c2cnc(Nc3ccc(N4CCC(N(C)C)CC4)cc3)nc12 [Example 60]
0.5

Give reported Ki value for O=c1c2cnc(Nc3ccc4c(c3)CNCC43CC3)nc2c(C(F)F)cn1-c1c(Cl)cccc1Cl [Example 86]
0.305

Give reported Ki value for Cc1cn(-c2c(Cl)cccc2Cl)c(=O)c2cnc(Nc3ccc(OC4CCN(C)CC4)cc3)nc12 [Example 122]
0.4

###

# target_entity: GST-tagged-Wee1 kinase (Homo sapiens, UniProt P30291)
# Construct: purchased Carnabio 05-177
# assay_details: Wee1 time-resolved fluorescence equilibrium binding assay (displacement of Oregon Green-labeled ATP-competitive kinase probe)
# condition_details: enzyme binding data; GST-tagged-Wee1 kinase 2 nM, fluorescent probe 300 nM, inhibitor 0.003 to 10 micromolar, 1 hour incubation; read-out: Wee-1 binding (Ki nM)
// returns criterion not met unless Ki is strictly below 1 nM, in which case criterion met

Solved entries (count: 2):
{"columns": ["compound", "group_label"],
 "data": [
  ["Cc1cccc(C)c1-n1cc(C)c2nc(Nc3ccc4c(c3)CNCC4)ncc2c1=O [Example 126]", "criterion met"],
  ["Cc1noc(C)c1-n1cc(C)c2nc(Nc3ccc4c(c3)CNCC4)ncc2c1=O [Example 124]", "criterion not met"]
]}

Could you please tell me whether Ki recorded for Cc1n[nH]c(C)c1-n1cc(C)c2nc(Nc3ccc4c(c3)CNCC4)ncc2c1=O [Example 123] is less than 1 nM?
criterion not met

Could you please tell me whether Ki recorded for Cc1cn(-c2c(F)cccc2Cl)c(=O)c2cnc(Nc3ccc(N4CCC(N(C)C)CC4)cc3)nc12 [Example 69] is less than 1 nM?
criterion not met

Could you please tell me whether Ki recorded for Cc1cccc(Cl)c1-n1cc(C)c2nc(Nc3ccc(N4CCC(N(C)C)CC4)cc3)ncc2c1=O [Example 91] is less than 1 nM?
criterion met

Could you please tell me whether Ki recorded for C=Cc1cn(-c2c(F)cccc2Cl)c(=O)c2cnc(Nc3ccc(C4CCN(C)CC4)cc3)nc12 [Example 61] is less than 1 nM?
criterion met

Sourced from patent US9718821B2
